test: AUC (0 to 24 hrs) in nu/nu mouse xenograft model xenografted with human SK-OV-3 cells measured in tumor at 180 mg/kg, po QD; assay type: ADME, organism-based; design: time < 24 hr, route oral, dose 180 mg/kg

>  <smiles repr>
CC[C@@H](NC(=O)c1ccc(OC)nc1)[C@H]1CC[C@@H](c2ccnc(OC)c2C(F)F)CC1

>  <AUC at 24 h>
13 µM·h

$$$$

###

target: UDP-glucuronosyltransferases (UGT) (Homo sapiens, UniProt O60656+O75310+O75795+P06133+P0DTE4+P0DTE5+P16662+P19224+P22309+P22310+P35503+P35504+P36537+P54855+Q6UWM9+Q9BY64+Q9HAW7+Q9HAW8+Q9HAW9); experiment: Metabolic stability assessed as human UGT-mediated metabolism by measuring half life; format: ADME, protein assay
measurement label: half-life

>  <smiles repr>
CC[C@@H](NC(=O)c1ccc(OC)nc1)[C@H]1CC[C@@H](c2ccnc(OC)c2C(F)F)CC1

>  <meas value>
> 2 h

$$$$

###

remaining at 10 min, 0.5 µM values by entry
assay: Metabolic stability in rat liver microsomes assessed as parent compound remaining at 0.5 uM after 10 mins incubation by LC-MS/MS analysis relative to control; assay type: ADME, Microsome; conditions: read-out: Activity
measurement label: remaining at 10 min, 0.5 µM (%)

>  <smiles repr>
CC[C@@H](NC(=O)c1ccc(Cl)cc1)[C@H]1CC[C@@H](c2ccnc(OC)c2F)CC1

>  <meas value>
21

$$$$
>  <smiles repr>
COC[C@@H](NC(=O)c1ccc(Cl)cc1)[C@H]1CC[C@@H](c2ccnc(OC)c2C(F)F)CC1

>  <meas value>
35

$$$$
>  <smiles repr>
CC[C@@H](NC(=O)c1ccc(Cl)cc1)[C@H]1CC[C@@H](c2ccnc(OC)c2C(F)F)CC1

>  <meas value>
57

$$$$
>  <smiles repr>
CC[C@@H](NC(=O)c1ccc(OC)nc1)[C@H]1CC[C@@H](c2ccnc(OC)c2C(F)F)CC1

>  <meas value>
90

$$$$
>  <smiles repr>
CC[C@@H](NC(=O)c1ccc(Cl)cc1)[C@H]1CC[C@@H](c2ccnc(OC)c2C)CC1

>  <meas value>
34

$$$$
>  <smiles repr>
Cc1c(F)nccc1[C@H]1CC[C@@H]([C@@H](C)NC(=O)c2ccc(Cl)cc2)CC1

>  <meas value>
1

$$$$

###

assay: Metabolic stability in mouse liver microsomes assessed as parent compound remaining at 0.5 uM after 10 mins incubation by LC-MS/MS analysis relative to control; assay type: ADME, Microsome; details: read-out: Activity
remaining at 10 min, 0.5 µM values by entry

>  <smiles repr>
CC[C@@H](NC(=O)c1ccc(OC)nc1)[C@H]1CC[C@@H](c2ccnc(OC)c2C(F)F)CC1

>  <remaining at 10 min, 0.5 µM (%)>
60

$$$$
>  <smiles repr>
CC[C@@H](NC(=O)c1ccc(Cl)cc1)[C@H]1CC[C@H](c2ccc(OC(F)F)cc2)CC1

>  <remaining at 10 min, 0.5 µM (%)>
90

$$$$
>  <smiles repr>
CC[C@@H](NC(=O)c1ccc(Cl)cc1)[C@H]1CC[C@@H](c2cccnc2OC)CC1

>  <remaining at 10 min, 0.5 µM (%)>
1

$$$$
>  <smiles repr>
Cc1nccc([C@H]2CC[C@@H]([C@@H](C)NC(=O)c3ccc(Cl)cc3)CC2)c1C

>  <remaining at 10 min, 0.5 µM (%)>
3

$$$$
>  <smiles repr>
CC[C@@H](NC(=O)c1ccc(Cl)cc1)[C@H]1CC[C@@H](c2ccnc(OC)c2C)CC1

>  <remaining at 10 min, 0.5 µM (%)>
15

$$$$
>  <smiles repr>
CC[C@@H](NC(=O)c1ccc(Cl)cc1)[C@H]1CC[C@H](c2cccc(C(F)(F)F)n2)CC1

>  <remaining at 10 min, 0.5 µM (%)>
56

$$$$
>  <smiles repr>
CC[C@@H](NC(=O)c1ccc(Cl)cc1)[C@H]1CC[C@@H](c2ccnc(OC)c2F)CC1

>  <remaining at 10 min, 0.5 µM (%)>
15

$$$$
>  <smiles repr>
CC[C@@H](NC(=O)c1ccc(Cl)cc1)[C@H]1CC[C@@H](c2cccc3c2OC(F)(F)O3)CC1

>  <remaining at 10 min, 0.5 µM (%)>
0

$$$$
>  <smiles repr>
CC[C@@H](NC(=O)c1ccc(Cl)cc1)[C@H]1CC[C@H](c2cccc(=O)n2C)CC1

>  <remaining at 10 min, 0.5 µM (%)>
65

$$$$
>  <smiles repr>
COC[C@@H](NC(=O)c1ccc(Cl)cc1)[C@H]1CC[C@@H](c2ccnc(OC)c2C(F)F)CC1

>  <remaining at 10 min, 0.5 µM (%)>
15

$$$$
>  <smiles repr>
CC[C@@H](NC(=O)c1ccc(Cl)cc1)[C@H]1CC[C@H](c2cncc(OC)c2)CC1

>  <remaining at 10 min, 0.5 µM (%)>
28

$$$$
>  <smiles repr>
CC[C@@H](NC(=O)c1ccc(Cl)cc1)[C@H]1CC[C@H](c2nccc(OC)n2)CC1

>  <remaining at 10 min, 0.5 µM (%)>
42

$$$$
>  <smiles repr>
CC[C@@H](NC(=O)c1ccc(Cl)cc1)[C@H]1CC[C@@H](c2ccnc(OC)c2C(F)F)CC1

>  <remaining at 10 min, 0.5 µM (%)>
30

$$$$
>  <smiles repr>
Cc1cc([C@H]2CC[C@@H]([C@@H](C)NC(=O)c3ccc(Cl)cc3)CC2)ccn1

>  <remaining at 10 min, 0.5 µM (%)>
1

$$$$
>  <smiles repr>
CC[C@@H](NC(=O)c1ccc(Cl)cc1)[C@H]1CC[C@H](c2cccc(C)n2)CC1

>  <remaining at 10 min, 0.5 µM (%)>
8

$$$$
>  <smiles repr>
Cc1c(F)nccc1[C@H]1CC[C@@H]([C@@H](C)NC(=O)c2ccc(Cl)cc2)CC1

>  <remaining at 10 min, 0.5 µM (%)>
1

$$$$
>  <smiles repr>
Cc1cnccc1[C@H]1CC[C@@H]([C@@H](C)NC(=O)c2ccc(Cl)cc2)CC1

>  <remaining at 10 min, 0.5 µM (%)>
15

$$$$
